# target: T1, human MUC1 on cells (DA3-TM transfectants and human cancer cell lines SKOV3, COLO357, HT29 and others) (human, UniProt P15941 24-1255)
# T1 construct: also called MUC1-SEA; surface MUC1
# T1 sequence (P15941 24-1255 limits assumed): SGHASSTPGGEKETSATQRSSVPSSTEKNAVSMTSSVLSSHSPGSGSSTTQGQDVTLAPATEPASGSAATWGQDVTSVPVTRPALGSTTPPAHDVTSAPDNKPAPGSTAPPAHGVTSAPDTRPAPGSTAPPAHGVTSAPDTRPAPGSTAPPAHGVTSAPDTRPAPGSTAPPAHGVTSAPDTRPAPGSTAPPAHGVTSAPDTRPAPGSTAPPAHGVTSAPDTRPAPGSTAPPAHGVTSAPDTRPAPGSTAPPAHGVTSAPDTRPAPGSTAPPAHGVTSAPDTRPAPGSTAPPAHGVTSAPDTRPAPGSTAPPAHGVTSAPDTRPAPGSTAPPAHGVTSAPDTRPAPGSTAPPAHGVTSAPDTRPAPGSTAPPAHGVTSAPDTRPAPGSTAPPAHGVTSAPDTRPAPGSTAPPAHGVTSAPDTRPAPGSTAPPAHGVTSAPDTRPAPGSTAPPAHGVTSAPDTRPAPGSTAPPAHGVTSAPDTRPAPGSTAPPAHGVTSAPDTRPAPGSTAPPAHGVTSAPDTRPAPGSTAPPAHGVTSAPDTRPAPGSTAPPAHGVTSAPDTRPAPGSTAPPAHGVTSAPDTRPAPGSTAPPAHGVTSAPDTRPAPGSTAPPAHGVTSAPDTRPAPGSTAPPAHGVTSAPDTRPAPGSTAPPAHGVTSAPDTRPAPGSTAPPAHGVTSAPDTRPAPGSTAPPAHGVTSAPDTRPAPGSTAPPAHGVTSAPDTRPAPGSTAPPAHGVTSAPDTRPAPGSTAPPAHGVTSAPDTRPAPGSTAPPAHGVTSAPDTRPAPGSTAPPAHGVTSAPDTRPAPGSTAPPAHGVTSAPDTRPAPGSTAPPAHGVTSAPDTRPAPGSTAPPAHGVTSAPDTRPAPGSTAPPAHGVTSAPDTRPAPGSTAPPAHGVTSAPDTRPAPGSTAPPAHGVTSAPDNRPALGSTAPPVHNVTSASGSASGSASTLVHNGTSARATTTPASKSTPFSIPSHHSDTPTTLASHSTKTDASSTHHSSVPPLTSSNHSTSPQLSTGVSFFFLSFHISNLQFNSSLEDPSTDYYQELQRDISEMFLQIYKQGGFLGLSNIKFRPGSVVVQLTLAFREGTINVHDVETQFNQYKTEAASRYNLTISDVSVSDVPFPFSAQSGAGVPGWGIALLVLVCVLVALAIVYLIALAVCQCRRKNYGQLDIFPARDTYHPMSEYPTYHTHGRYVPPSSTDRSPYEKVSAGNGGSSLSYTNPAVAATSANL
# test name: flow cytometry on DA3-TM cells; table row 3 of 5, about 3.7 nM by the matching point in FIG. 3A
readout label: Geometric Mean : FL6-A

{"columns": ["binder", "numeric readout"],
 "data": [
  ["HM5 LM2 variant of humanized anti-MUC1 antibody SP66 (antibody, V domains shown, Humanized IgG expressed in CHO cells; only variable domains tied to the variant) VH: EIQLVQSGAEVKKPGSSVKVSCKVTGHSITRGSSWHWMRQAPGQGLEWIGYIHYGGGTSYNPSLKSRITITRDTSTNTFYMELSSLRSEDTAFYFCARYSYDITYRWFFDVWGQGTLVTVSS VL: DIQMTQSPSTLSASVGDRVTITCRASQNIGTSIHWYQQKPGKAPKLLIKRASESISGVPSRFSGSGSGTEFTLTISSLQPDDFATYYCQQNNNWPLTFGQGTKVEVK", 21300]
]}
